- assay-system: Transcription factor Jun (Homo sapiens)
- Sequence (P05412 whole entry): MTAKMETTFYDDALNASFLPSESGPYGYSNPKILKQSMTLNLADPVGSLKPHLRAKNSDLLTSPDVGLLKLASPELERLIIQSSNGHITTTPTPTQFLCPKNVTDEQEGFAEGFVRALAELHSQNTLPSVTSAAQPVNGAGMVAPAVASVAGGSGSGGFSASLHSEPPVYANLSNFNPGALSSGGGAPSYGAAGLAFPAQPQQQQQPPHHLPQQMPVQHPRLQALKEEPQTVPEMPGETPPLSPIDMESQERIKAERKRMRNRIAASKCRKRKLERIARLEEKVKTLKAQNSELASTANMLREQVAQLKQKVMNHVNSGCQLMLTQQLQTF
measure-name: IC50 (nM)

compound: Cc1ccc(-c2cccc3cnc(NC4CCC(O)CC4)nc23)cn1 (stereo unspecified)
measure-name: IC50
units: nM
experimental-value: 930

compound: c1ccc(-c2cccc3cnc(Nc4ccc(-n5cnc(N6CCOCC6)n5)cc4)nc23)cc1
measure-name: IC50
units: nM
experimental-value: 1400

1: Cn1cc(-c2cccc3cnc(Nc4ccc(-n5cnc(N6CCOCC6)n5)cc4)nc23)cn1
2: Cc1c(-c2cnn(C)c2)ccc2cnc(Nc3ccc(-n4cnc(N5CCOCC5)n4)cc3)nc12
*Q* Would you mind telling me which has the lower recorded IC50 between 1 and 2 ? Mark your selection by writing its label.
*A* 2

a: c1cc(-n2cnc(N3CCOCC3)n2)ccc1Nc1ncc2ccc(-c3cn[nH]c3)cc2n1
b: CC(C)n1cc(-c2ccc3cnc(Nc4ccc(-n5cnc(N6CCOCC6)n5)cc4)nc3c2Cl)cn1
c: c1cc(-c2nccs2)c2nc(Nc3ccc(-n4cnc(N5CCOCC5)n4)cc3)ncc2c1
d: Cn1cc(-c2ccc3cnc(Nc4ccc(-n5cnc(N6CCOCC6)n5)cc4)nc3c2-c2cnn(C)c2)cn1
*Q* Please give the order of these compounds when sorted by IC50, largest value leading. Put the labels in the order asked and list them.
*A* c, b, a, d

1: Cn1cc(-c2ccc3cnc(Nc4ccc(-n5cnc(N6CCOCC6)n5)cc4)nc3c2Cl)cn1
2: Cn1cc(-c2ccc3cnc(Nc4ccc(-n5cnc(N6CCOCC6)n5)cc4)nc3c2-c2ccccc2)cn1
*Q* Lab note: check whether 1 or 2 shows the higher recorded IC50. Use the label to indicate which entry you chose.
*A* 1
